biological target: human α-thrombin (human), P00734; assay: microplate thermal shift assay; Kd at Tm of Hirugen for thrombin with 200 µM heparin 5000 present

{"columns": ["binder", "endpoint.unit", "Kd"],
 "data": [
  ["DGDFEEIPEEYL (modifications not checked) [Hirugen (hirudin 53-64), P01050 53-64]", "µM", 4.25]
]}
